target: T1, human sucrase-isomaltase complex (hSI) receptor domain, amino acid residues 272-667, His-tag fusion protein (human, UniProt P14410 272-667); test: phage ELISA, OD on hSI over OD on BSA
T1 construct: Expressed as His-tag fusion, purified under denaturing conditions (urea or guanidine HCl), coated on plates; also called hS1 receptor domain; not shown: poly-histidine tag (pET His-tag) at the NH2-terminal end
T1 sequence (P14410 272-667, one chain of several): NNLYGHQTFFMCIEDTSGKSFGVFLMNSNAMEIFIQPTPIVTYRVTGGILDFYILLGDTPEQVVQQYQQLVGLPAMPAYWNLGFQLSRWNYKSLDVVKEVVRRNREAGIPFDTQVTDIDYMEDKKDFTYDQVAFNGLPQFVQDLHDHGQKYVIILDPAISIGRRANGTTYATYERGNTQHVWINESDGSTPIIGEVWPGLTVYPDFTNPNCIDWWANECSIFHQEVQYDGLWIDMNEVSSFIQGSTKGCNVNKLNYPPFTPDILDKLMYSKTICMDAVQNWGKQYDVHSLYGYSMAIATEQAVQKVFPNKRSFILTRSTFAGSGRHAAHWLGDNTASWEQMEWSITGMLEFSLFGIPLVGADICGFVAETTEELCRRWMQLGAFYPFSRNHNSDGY
What hSI/BSA was measured for each of the following?
Answers are plain numbers, in ratio.

>  <Binder>
SDSDGDHYGLRGGVRCSLRDRGCGLALSTVHAGPPSFYPKLSSP (pIII and flanks not included) [phage SNiAX2]

>  <Assay Value>
6

$$$$
>  <Binder>
RSGAYESPDGRGGRSYVGGGGGCGNIGRKHNLWGLRTASPACWD (pIII and flanks not included) [phage S15]

>  <Assay Value>
9

$$$$
>  <Binder>
SHSGGMNRAYGDVFRELRDRWNATSHHTRPTPQLPRGPN (pIII and flanks not included) [phage SNi28]

>  <Assay Value>
8

$$$$

Each binder below has a reported value. Please supply its hSI/BSA.
1. SPKLSSVGVMTKVTELPTEGPNAISIPISATLGPRNPLR (pIII and flanks not included) [phage SNiAX8]
2. SSSSDWGGVPGKVVRERFKGRGCGISITSVLTGKPNPCPEPKAA (pIII and flanks not included) [phage S22]
3. SGGEVSSWGRVNDLCARVSWTGCGTARSARTDNKGFLPKHSSLR (pIII and flanks not included) [phage SNi45]
4. SPCGGSWGRFMQGGLFGGRTDGCGAHRNRTSASLEPPSSDY (pIII and flanks not included) [phage SNi34]
5. RTTTAKGCLLGSFGVLSGCSFTPTSPPPHLGYPPHSVN (pIII and flanks not included) [phage SNiAX6]
6. RGAADQRRGWSENLGLPRVGWDAIAHNSYTFTSRRPRPP (pIII and flanks not included) [phage SNi38]
7. RVGQCTDSDVRRPWARSCAHQGCGAGTRNSHGCITRPLRQASAH (pIII and flanks not included) [phage SNi10]

[5, 7, 9, 7, 7, 6, 11]
